Please respond with reported viability at 28.5 h, 10 µM for every item in the list.
Experiment: in vitro
Conditions: human, hela cells, % viability

Example entries begin here.
>  <MOLECULE>
O=C(c1ccccc1Br)N1CCCCC1 [CBK028504]

>  <viability at 28.5 h, 10 µM>
87.6%

$$$$
>  <MOLECULE>
Cc1cnccc1-c1c[nH]nc1-c1cccc(CNS(=O)(=O)c2ccc(F)c(F)c2)c1 [CBK285627]

>  <viability at 28.5 h, 10 µM>
96%

$$$$
>  <MOLECULE>
CCCC/C=C/c1cnc2[nH]c(=O)n(Cc3ccc(S(N)(=O)=O)cc3)c2n1 [CBK064956]

>  <viability at 28.5 h, 10 µM>
98.8%

$$$$
>  <MOLECULE>
c1csc(CNCCCN2CCOCC2)c1 [CBK278305C]

>  <viability at 28.5 h, 10 µM>
91.1%

$$$$
>  <MOLECULE>
OC(COc1ccc(-c2ccccc2)cc1)CN1CCN(Cc2ccccc2)CC1 (stereo not shown) [CBK074855C]

>  <viability at 28.5 h, 10 µM>
94.6%

$$$$
>  <MOLECULE>
Cc1ccc2nc(NCCC(=O)O)nc(-c3ccccc3)c2c1 [CBK266537]

>  <viability at 28.5 h, 10 µM>
97.4%

$$$$
>  <MOLECULE>
Cc1cccc(=O)n1CCC(=O)N1CCCCC1CN1CCOCC1 (stereo not shown) [CBK306528]

>  <viability at 28.5 h, 10 µM>
109%

$$$$
>  <MOLECULE>
O=C(c1ccc(Nc2ccnc3cc(C(F)(F)F)ccc23)cc1)N1CCC(O)(c2cccc(C(F)(F)F)c2)CC1 [CBK012467]

>  <viability at 28.5 h, 10 µM>
91.6%

$$$$

Please supply viability at 28.5 h, 10 µM for each of the following items, keeping them in order.
1. CS(=O)(=O)N(CC(=O)Nc1ccc2c(c1)OCO2)c1ccc(Oc2ccccc2)cc1 [CBK263989]
2. CC(=O)Nc1ccc(-c2nc3c4ccccc4c4ccc(I)cc4c3[nH]2)cc1 [CBK262667]
3. COc1cc(F)cc(OC2CCNCC2)c1NC(=O)c1c(-c2ccccc2)noc1C [CBK050350T]
4. Cc1cc2ncc3c(n2n1)CC1CCC3N1C(=O)CCn1cccc1 (stereo not shown) [CBK283157]
5. Cc1ccc(C(=O)NCc2cccc(COCc3ccco3)c2)cc1F [CBK297750]
6. Cn1ccnc1C(NC(=O)c1ccccn1)c1ccc(F)c(F)c1 (stereo not shown) [CBK283783]
7. Cc1nn(C(C)C(=O)Nc2cc(C(F)(F)F)ccc2Cl)c(C)c1[N+](=O)[O-] (stereo not shown) [CBK268697]

[reply]
["91.5%", "100%", "91.8%", "109%", "83.5%", "91.6%", "88.5%"]

Please supply viability at 28.5 h, 10 µM for each of the following items, keeping them in order.
1. S=c1nc[nH]cc1-c1ccc(Br)cc1 [CBK005833]
2. Cc1ccc(NC(=O)c2cc(C)[nH]n2)c(C)n1 [CBK200387]
3. COCCN(CCOC)C(=O)Nc1ccc(F)c(NC(C)=O)c1 [CBK307705]

[reply]
1: 87.6%; 2: 83.8%; 3: 98.2%

[ask] Quick check: viability at 28.5 h, 10 µM of CC(C)n1ncc2cc(C(=O)Nc3ncccc3O)cnc21 [CBK305751] ?
[reply] 109%
